B1: tRNA (parent)
chain: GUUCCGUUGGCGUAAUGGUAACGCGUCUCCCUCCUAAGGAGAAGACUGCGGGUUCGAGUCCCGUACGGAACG

Variants of: B1
Protocol summary: yeast fitness relative to wild type (ratio to wild type); higher = fitter; tRNA-Arg(CCU), competitive growth, 37 C, YPD
Fewer inactive variants are shown than the library holds.
Task for the reader: assign each of the following variants its reported yeast fitness.
One number for each entry.

Example entries begin here.
GUUCCGUUGGCGCAAUGGUAACGCGUCUCCCUCCUAAGGACAAGACUGCGGGUUCGAGUCCCGUACGGAACG [U13C G41C] :: 0.761
GUUUCGUUGGCGUAAUGGUAACGCGUCUCCCUCCUAAGGUGAAGACUGCGGGUUCGAGUCCCGUACGCAACG [C4U A40U G68C] :: 0.68
GUUCCGUUGGCGUAAUGGUAACGCGUCUCCCUCCUAAGGAGAAGACUGCGGGUUCGAGUCUCGCACGGAACG [C61U U64C] :: 0.902
GUUCCGUUGGCGUAAUGGUAACGCGUCUCCCUCCUAAGGUGAAGACUGUGGGUUCGAGUCCUGUACGGGACG [A40U C49U C62U A69G] :: 0.904
GUUCCGUUGGCGUAAUGGUAACCCAUCUCCCUCCUAAGGAGAAGACUGCGGGUUCGAGUCCCGUACGGAACG [G23C G25A] :: 0.818
GUUCCGUUGGCGUAAUGGUAACGCGUCUCCCUCUUAAGGGGAAGACUGCGGGUUCGAGUCCCGUACGGUACG [C34U A40G A69U] :: 0.574
GUUCCGUUGGCGUAAUGGUAACGCGACUCCCUCCUAAGGAGGAGACCGCGGGUUCGAGUCCCAUACGGAACG [U26A A42G U47C G63A] :: 0.519
GAUCCGUUGGCGUAAUGGUAACGCGUCUCCCUCCUAAGGAGAAGACUGCGGGUUCGAGUCCCGUACGGCACG [U2A A69C] :: 0.959
GUUACGUUGGCGUAAUGGUAACGCGUCUCCCUCCUGAGGAGAAGACUGCGGGUUCGAGUCCCGUACGGAACG [C4A A36G] :: 0.87
GUUCCGUUGGCGUAAUGGUAACGCGUCUCGCUCCUAAGGAGGAGACUGCGGGUUCGAGUCCCGUACGGAACG [C30G A42G] :: 0.626

Would you mind listing yeast fitness for each of the following variants?
1. GUUCCGUCGGCGUAAUGGUAACGCGUCUCCCUCCUAAGGAGAAGACUGCGAGUUCGAGUCCCGUACGGAACG [U8C G51A]
2. GUUCCGUUGGCGUAGUGGUAACGCGUCUCCCUCCUAAGGAGAAAACUGCGGGUUCGAAUCCCGUACGGAACG [A15G G44A G58A]
3. GUUCCGUUGGCGUAAUGGUAACGCGUCUCCCUCCUAAGGUGAAGACUGCGGGUUCGAGUCCCGUAUGGAACG [A40U C66U]
4. GUUCCGUUGGCGUAAUGGUAUCGCGUCUCCCUCCUAAGGAGAAGACUGCAGGUUCGAGUCCGGUACGGAACG [A21U G50A C62G]
5. GUUCCGUUGGCGUAAUGGUAACGCGGCUCCCUCCUAAGGAGAAGACUGCGGGUUCGAGUCCCAUACGGAACG [U26G G63A]
6. GUUCCGUUGGCGUAAUGGUAAGGCGUCUCCCUCCUAAGGAGAAGAAUGCGGGUUCGAGUCCCGUACGGAACG [C22G C46A]
7. GCUCCGUUGGCGUAAUGGUAACGCGUCUCCCUCCUAAGGAGAAGACUGCGGGUUAGAGUCCCGUACGGAACG [U2C C55A]
8. GUUCCGUUGGCGUAAUGGUAACGCGUCUCCCUCCUAAGGAGUAGACUGCGCGUUCGAGUCCCGUACGGAACG [A42U G51C]

[0.817, 0.992, 0.904, 0.601, 0.919, 1.03, 0.7, 0.567]

Would you mind listing yeast fitness for each of the following variants?
1. GUUCCGUUGGCGUAAUGGUAACGCGUCUCACUCCUAAGGAGAAGACUGCGGGUUCCAGUCCCGUACGGAACG [C30A G56C]
2. GUUCCGUUGGCGUAAUGGUAACGCAUCUCCCUCCUAAGGAGAAGAGUGCGGGUUCGAGUCCCGUUCGGAACG [G25A C46G A65U]
3. GUUCCGUUGGCAUAAUGGUAACGCGUCUCCCUCCUAAGGAGAAGACUGCGGGUUCGACUCCCAUACGGAACG [G12A G58C G63A]

1. 0.639
2. 0.788
3. 0.615
